System: 967376-340-R-J2-PDC multicell spheroid viability
Experiment: Anticancer human tumor 967376-340-R-J2-PDC patient-derived colon adenocarcinoma cell line growth inhibition [PI3K]
Conditions: curve of first compound; second compound 0.01 µM
Catalogue of molecules with associated IC50

// worked examples, IC50 included
CCN1CCN(Cc2ccc(Nc3ncc(F)c(-c4cc(F)c5nc(C)n(C(C)C)c5c4)n3)nc2)CC1 + COc1c(OCCCN2CCOCC2)ccc2c3n(c(=NC(=O)c4cnc(N)nc4)nc12)CCN3
> 1 µM
CC(Cn1ccc(-c2ccc(C#N)c(Cl)c2)n1)NC(=O)c1cc(C(C)O)[nH]n1 (centres undefined) + CC(Nc1ccc2c(c1)OCCn1cc(N3C(=O)OCC3C(F)F)nc1-2)C(N)=O
> 10 µM
CC(C)n1nc(-c2ccc3oc(N)nc3c2)c2c(N)ncnc21 + CC(Nc1ccc2c(c1)OCCn1cc(N3C(=O)OCC3C(F)F)nc1-2)C(N)=O
> 0.1 µM
CC(=O)c1c(C)c2cnc(Nc3ccc(N4CCNCC4)cn3)nc2n(C2CCCC2)c1=O + COc1c(OCCCN2CCOCC2)ccc2c3n(c(=NC(=O)c4cnc(N)nc4)nc12)CCN3
> 0.1 µM
C[C@@H](NC(=O)c1ncnc(N)c1Cl)c1ncc(C(=O)Nc2cc(C(F)(F)F)c(Cl)cn2)s1 + CC(Nc1ccc2c(c1)OCCn1cc(N3C(=O)OCC3C(F)F)nc1-2)C(N)=O
> 10 µM

Incoming: Answer with reported IC50 of CC(=O)c1c(C)c2cnc(Nc3ccc(N4CCNCC4)cn3)nc2n(C2CCCC2)c1=O + CC(Nc1ccc2c(c1)OCCn1cc(N3C(=O)OCC3C(F)F)nc1-2)C(N)=O
Outgoing: > 0.1 µM

Incoming: Answer with reported IC50 of CC1(C)CCC(Nc2ncc(C(F)(F)F)c(-c3c[nH]c4c(P(C)(C)=O)c(C#N)ccc34)n2)CN1 (centres undefined) + CC(Nc1ccc2c(c1)OCCn1cc(N3C(=O)OCC3C(F)F)nc1-2)C(N)=O
Outgoing: > 10 µM

Incoming: Answer with reported IC50 of CC(Cn1ccc(-c2ccc(C#N)c(Cl)c2)n1)NC(=O)c1cc(C(C)O)[nH]n1 (centres undefined) + COc1c(OCCCN2CCOCC2)ccc2c3n(c(=NC(=O)c4cnc(N)nc4)nc12)CCN3
Outgoing: > 10 µM

Incoming: Answer with reported IC50 of CC(C)NCC(C(=O)N1CCN(c2ncnc3c2C(C)CC3O)CC1)c1ccc(Cl)cc1 (centres undefined) + CC(Nc1ccc2c(c1)OCCn1cc(N3C(=O)OCC3C(F)F)nc1-2)C(N)=O
Outgoing: > 10 µM

Incoming: Answer with reported IC50 of CCCS(=O)(=O)Nc1ccc(F)c(C(=O)c2c[nH]c3ncc(-c4ccc(Cl)cc4)cc23)c1F + CC(Nc1ccc2c(c1)OCCn1cc(N3C(=O)OCC3C(F)F)nc1-2)C(N)=O
Outgoing: 9.81 µM

Incoming: Answer with reported IC50 of CC(C)NCC(C(=O)N1CCN(c2ncnc3c2C(C)CC3O)CC1)c1ccc(Cl)cc1 (centres undefined) + COc1c(OCCCN2CCOCC2)ccc2c3n(c(=NC(=O)c4cnc(N)nc4)nc12)CCN3
Outgoing: > 10 µM

Incoming: Answer with reported IC50 of CNC(=O)c1ccc(N2C(=S)N(c3ccc(C#N)c(C(F)(F)F)c3)C(=O)C2(C)C)cc1F + CC(Nc1ccc2c(c1)OCCn1cc(N3C(=O)OCC3C(F)F)nc1-2)C(N)=O
Outgoing: > 10 µM

Incoming: Answer with reported IC50 of C#Cc1c(F)ccc2cc(O)cc(-c3ncc4c(N5CC6CCC(C5)N6)nc(OCC56CCCN5CC(F)C6)nc4c3F)c12 (centres undefined) + COc1c(OCCCN2CCOCC2)ccc2c3n(c(=NC(=O)c4cnc(N)nc4)nc12)CCN3
Outgoing: > 10 µM

Incoming: Answer with reported IC50 of CCN1CCN(Cc2ccc(Nc3ncc(F)c(-c4cc(F)c5nc(C)n(C(C)C)c5c4)n3)nc2)CC1 + CC(Nc1ccc2c(c1)OCCn1cc(N3C(=O)OCC3C(F)F)nc1-2)C(N)=O
Outgoing: > 1 µM

###

Test system: 967376-340-R-J2-PDC multicell spheroid viability
Assay: Anticancer human tumor 967376-340-R-J2-PDC cell line growth inhibition [PI3K];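 note: spheroids exposed to agents for 7 days before read-out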;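 for viability, T/C: luminescence used as surrogate of cell viability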
Details: second compound 0.0316 µM; first compound 0.0316 µM; stronger effect = lower value
Catalogue of compounds with associated viability, T/C
Only the number, expressed in %, is required.

// worked examples, viability, T/C included
CC(C)n1nc(-c2ccc3oc(N)nc3c2)c2c(N)ncnc21 + CC(Nc1ncnc2nc[nH]c12)c1cc2cccc(Cl)c2c(=O)n1-c1ccccc1
97.5
CC(=O)c1c(C)c2cnc(Nc3ccc(N4CCNCC4)cn3)nc2n(C2CCCC2)c1=O + CC(Nc1ccc2c(c1)OCCn1cc(N3C(=O)OCC3C(F)F)nc1-2)C(N)=O
91.3
CCN1CCN(Cc2ccc(Nc3ncc(F)c(-c4cc(F)c5nc(C)n(C(C)C)c5c4)n3)nc2)CC1 + COc1c(OCCCN2CCOCC2)ccc2c3n(c(=NC(=O)c4cnc(N)nc4)nc12)CCN3
71.4
Cn1ncnc1[C@H]1c2n[nH]c(=O)c3cc(F)cc(c23)N[C@@H]1c1ccc(F)cc1 + CC(Nc1ncnc2nc[nH]c12)c1cc2cccc(Cl)c2c(=O)n1-c1ccccc1
84.7
CNC(=O)c1ccc(N2C(=S)N(c3ccc(C#N)c(C(F)(F)F)c3)C(=O)C2(C)C)cc1F + COc1c(OCCCN2CCOCC2)ccc2c3n(c(=NC(=O)c4cnc(N)nc4)nc12)CCN3
78

Now take the following compound into account.
Incoming: Answer with reported viability, T/C of CC(C)NCC(C(=O)N1CCN(c2ncnc3c2C(C)CC3O)CC1)c1ccc(Cl)cc1 (stereo unspecified) + Cc1nc(NC(=O)N2CCCC2C(N)=O)sc1-c1ccnc(C(C)(C)C(F)(F)F)c1
Outgoing: 118

###

Tested on: 967376-340-R-J2-PDC multicell spheroid viability
Assay: Anticancer human tumor 967376-340-R-J2-PDC cell line growth inhibition [PI3K];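 note: spheroids exposed to agents for 7 days before read-out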;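 for viability, T/C: luminescence used as surrogate of cell viability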
Conditions: second compound 10 µM; first compound 0.01 µM; stronger effect = lower value
// NB: equality with 80% counts as not met; only viability, T/C strictly below is met

CCN1CCN(Cc2ccc(Nc3ncc(F)c(-c4cc(F)c5nc(C)n(C(C)C)c5c4)n3)nc2)CC1 + CC(Nc1ncnc2nc[nH]c12)c1cc2cccc(Cl)c2c(=O)n1-c1ccccc1
not met
CCN1CCN(Cc2ccc(Nc3ncc(F)c(-c4cc(F)c5nc(C)n(C(C)C)c5c4)n3)nc2)CC1 + Cc1nc(NC(=O)N2CCCC2C(N)=O)sc1-c1ccnc(C(C)(C)C(F)(F)F)c1
met
Cn1ncnc1[C@H]1c2n[nH]c(=O)c3cc(F)cc(c23)N[C@@H]1c1ccc(F)cc1 + CC(Nc1ncnc2nc[nH]c12)c1cc2cccc(Cl)c2c(=O)n1-c1ccccc1
met
CC(C)n1nc(-c2ccc3oc(N)nc3c2)c2c(N)ncnc21 + CC(Nc1ncnc2nc[nH]c12)c1cc2cccc(Cl)c2c(=O)n1-c1ccccc1
not met
CC(=O)c1c(C)c2cnc(Nc3ccc(N4CCNCC4)cn3)nc2n(C2CCCC2)c1=O + CC(Nc1ncnc2nc[nH]c12)c1cc2cccc(Cl)c2c(=O)n1-c1ccccc1
not met
CC(C)n1nc(-c2ccc3oc(N)nc3c2)c2c(N)ncnc21 + Cc1nc(NC(=O)N2CCCC2C(N)=O)sc1-c1ccnc(C(C)(C)C(F)(F)F)c1
met
Cn1ncnc1[C@H]1c2n[nH]c(=O)c3cc(F)cc(c23)N[C@@H]1c1ccc(F)cc1 + Cc1nc(NC(=O)N2CCCC2C(N)=O)sc1-c1ccnc(C(C)(C)C(F)(F)F)c1
met

Here's the next entry for you.
Incoming: Consider CC(=O)c1c(C)c2cnc(Nc3ccc(N4CCNCC4)cn3)nc2n(C2CCCC2)c1=O + Cc1nc(NC(=O)N2CCCC2C(N)=O)sc1-c1ccnc(C(C)(C)C(F)(F)F)c1 . Does its viability, T/C lie strictly below 80%?
Outgoing: met

###

System: 967376-340-R-J2-PDC multicell spheroid viability
Experiment: Anticancer human tumor 967376-340-R-J2-PDC cell line growth inhibition [PI3K];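 note: spheroids exposed to agents for 7 days before read-out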;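 for viability, T/C: luminescence used as surrogate of cell viability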
Conditions: second compound 0.1 µM; first compound 0.01 µM; stronger effect = lower value
// NB: equality with 70% counts as NOT MET; only viability, T/C strictly below is MET

Example entries and their recorded answers appear below.
CC(C)n1nc(-c2ccc3oc(N)nc3c2)c2c(N)ncnc21 + COc1c(OCCCN2CCOCC2)ccc2c3n(c(=NC(=O)c4cnc(N)nc4)nc12)CCN3
MET
CC(C)n1nc(-c2ccc3oc(N)nc3c2)c2c(N)ncnc21 + CC(Nc1ncnc2nc[nH]c12)c1cc2cccc(Cl)c2c(=O)n1-c1ccccc1
NOT MET
CCN1CCN(Cc2ccc(Nc3ncc(F)c(-c4cc(F)c5nc(C)n(C(C)C)c5c4)n3)nc2)CC1 + CC(Nc1ccc2c(c1)OCCn1cc(N3C(=O)OCC3C(F)F)nc1-2)C(N)=O
MET
CC(=O)c1c(C)c2cnc(Nc3ccc(N4CCNCC4)cn3)nc2n(C2CCCC2)c1=O + CC(Nc1ncnc2nc[nH]c12)c1cc2cccc(Cl)c2c(=O)n1-c1ccccc1
NOT MET

Incoming: Consider CCN1CCN(Cc2ccc(Nc3ncc(F)c(-c4cc(F)c5nc(C)n(C(C)C)c5c4)n3)nc2)CC1 + Cc1nc(NC(=O)N2CCCC2C(N)=O)sc1-c1ccnc(C(C)(C)C(F)(F)F)c1 . Does its viability, T/C lie strictly below 70%?
Outgoing: NOT MET
